Test system: MOLT-4 leukemia
PROTOCOL_NOTES: NCI-60 one-dose screen, 48 h (100 = growth as untreated, 0 = no growth, -100 = all killed)
TEST_PARAMETERS: 10 µM unless noted
About 83,000 compounds went through this panel and 20% of them were active in at least one assay; those are over-represented in the sample as a whole. The source made the active and inactive calls. How the source made its calls: active means growth percent below 10; inactive means the rest.
MEASURE_NAME: growth

| MOLECULE | MEASURE_NAME | RESULT |
| --- | --- | --- |
| O=C(OCC1CC2(Cl)C(Cl)=C(Cl)C1(Cl)C2(Cl)Cl)C1C(C(=O)OCC2CC3(Cl)C(Cl)=C(Cl)C2(Cl)C3(Cl)Cl)C2(Cl)C(Cl)=C(Cl)C1(Cl)C2(Cl)Cl (stereo not given) | growth | 85% (inactive) |
| N=c1c2c(=O)n3c(nc2nc2sc4ccc(Cl)cc4n12)-c1ccccc1Sc1ccccc1-3 | growth | 8.17% (active) |
| CCOC(=O)C1=C(C(F)(F)F)NC(=O)NC1CN1C(=O)c2ccccc2C1=O (stereo not given) | growth | 70.5% (inactive) |
| CC[C@H](Nc1ncnc2nc[nH]c12)c1nc2cccc(NCc3ccc(C(=O)NO)nc3)c2c(=O)n1-c1ccccc1 | growth | 15% (inactive) |

Note down growth recorded for `O=C(CCC(=O)N(CCO)CCO)N(CCO)CCO`
90.8% (inactive)

Note down growth recorded for `O=C(/C=C1\C(=O)N(Cc2ccc([N+](=O)[O-])cc2)c2ccccc21)c1ccc(OCCN2CCCC2)cc1`
9.27% (active)

Note down growth recorded for CC(O)CN(CC(C)O)N(CC(C)O)CC(C)O (stereo not given)
102% (inactive)

Note down growth recorded for `Cc1ccc(C(=O)Nc2ccc(CN3CCN(C)CC3)c(C(F)(F)F)c2)cc1C#Cc1cncc2ncccc12`
-58.9% (active)

Note down growth recorded for `CC(=O)N1CCN(CCNC(=O)n2cc(-c3ccncc3)c(-c3ccc(O)c(Cl)c3)n2)CC1`
85.8% (inactive)

====

Quick reference: growth of the listed items.
System: U251 CNS
PROTOCOL_NOTES: NCI-60 one-dose screen, 48 h (100 = growth as untreated, 0 = no growth, -100 = all killed)
TEST_PARAMETERS: 10 µM unless noted
Procedure: Growth inhibition of the U251 human tumor cell line is measured as a screen for anti-cancer activity. Cells are grown in 96 well plates and exposed to the test compound for 48 hours. Compounds are tested at a single concentration, which is 10^-5 M for most compounds. The reported endpoint is percent growth (GI% or GIPRCNT), where numbers from 0 - 100% represent growth inhibition, and numbers from -100% - 0 represent cell death. For example, a value of 40 represents 60% growth inhibition. […]
About 83,000 compounds went through this panel and 20% of them were active in at least one assay; those are over-represented in the sample as a whole. Active and inactive are the calls of the source. How the source made its calls: active means growth percent below 10; inactive means the rest.

Sample records with growth:
| MOLECULE | TESTED_SYSTEM | RESULT |
| --- | --- | --- |
| O=C(CCC(=O)N(CCO)CCO)N(CCO)CCO | U251 CNS | 105% (inactive) |
| O=C(C(=O)N1CCOCC1)c1ccc(O[C@H]2O[C@H](CO)[C@@H](O)[C@H](O)[C@@H]2O)cc1 | U251 CNS | 104% (inactive) |

Note down growth recorded for COc1cc2c(c(OC)c1OC)C(=O)CC(c1cccc(C(=O)Nc3cccc(Br)c3)c1)O2 (stereo not given)
81.8% (inactive)

Note down growth recorded for `COc1ccc(CN2C(=O)/C(=C\C(=O)c3ccc(OCCN4CCCCC4)cc3)c3ccccc32)cc1`
80% (inactive)

Note down growth recorded for `N/C(=N\O)c1ccncc1`
106% (inactive)

Note down growth recorded for COC(=O)C(C)[C@H]1CC[C@@H]2[C@]1(C)CC=C1[C@]23C=C[C@]2(C[C@@H](OC(C)=O)CC[C@]12C)C(C(=O)OC)C3C(=O)OC (stereo not given in full)
88.8% (inactive)

Note down growth recorded for CCCC(C)c1cc(Cc2cc(Cl)cc(Cl)c2O)c(O)c(Cc2cc(Cl)cc(Cl)c2O)c1 (stereo not given)
7.55% (active)

Note down growth recorded for `COc1cc(Cn2ccc3c2-c2oncc2CC3)cc(OC)c1`
42.4% (inactive)

Note down growth recorded for `CCOC(=O)CSSCC(=O)OCC`
98.4% (inactive)

Note down growth recorded for `Nc1cc(N)c2nc(NCCc3ccc(Cl)c(Cl)c3)cnc2c1`
7.5% (active)

Values were extracted from PubChem BioAssay (NCI).
